This collection of values is drawn from the supplement of paper PMC8967900.

# System: LC4-1;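 note: ALL cell lines in 384-well plates, five doses spanning 10,000-fold, each plate scaled between vehicle and 100 µmol/L benzalkonium chloride controls, sDSS an adapted area-under-curve metric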
# EXPERIMENT NOTES: selective drug sensitivity score (sDSS, relative to normal bone marrow) (sDSS (score)); higher = more potent and effective on the cell line relative to normal bone marrow cells
# SETUP CONDITIONS: 72 h
PROPERTY NAME: selective drug sensitivity score

• COc1cc(OC)c(/C=C/S(=O)(=O)Cc2ccc(OC)c(NCC(=O)O)c2)c(OC)c1 [Rigosertib] (top concentration 10000 nM) = 16.6
• CC1=C(/C=C/C(C)=C/C=C/C(C)=C/C(=O)O)C(C)(C)CCC1 [Tretinoin] (top concentration 10000 nM) = -2.4
• Cc1cn(-c2cc(NC(=O)c3ccc(C)c(Nc4nccc(-c5cccnc5)n4)c3)cc(C(F)(F)F)c2)cn1 [Nilotinib] (top concentration 10000 nM) = 9.1
• Nc1nccc(-c2c(-c3ccc(F)cc3)ncn2C2CCCCC2)n1 (top concentration 10000 nM) = 3.1
• COC(=O)c1ccc2c(c1)[nH]c1ncnc(NCCCN3CCCCC3)c12 [UM729] (top concentration 10000 nM) = 1.54
• Nc1nc2[nH]cnc2c(=S)[nH]1 [Thioguanine] (top concentration 10000 nM) = 12.4
• CO[C@@H](C(=O)N1Cc2[nH]nc(NC(=O)c3ccc(N4CCN(C)CC4)cc3)c2C1)c1ccccc1 [Danusertib] (top concentration 10000 nM) = 19.9
• COc1cc2nccc(Oc3ccc(NC(=O)Nc4cc(C)on4)c(Cl)c3)c2cc1OC [Tivozanib] (top concentration 10000 nM) = 5.96
• NS(=O)(=O)NCCNc1nonc1/C(=N/O)Nc1ccc(F)c(Br)c1 [Epacadostat] (top concentration 10000 nM) = -0.26
